# Test system: H929 multiple myeloma tumour line
# ASSAY NAME: In vitro cytotoxicity, Microculture Tetrazolium Assay
# Format: cell-based
# SETUP CONDITIONS: Homo sapiens, NCI-H929, 48 h, H929 cells, 48 hours exposure, MTT; read-out: IC50 (μM) MTT H929
# Protocol: The cytotoxicity studies were carried out on the H929 multiple myeloma tumour line. The cells are distributed onto microplates and exposed to the test compounds for 48 hours.

COMPOUND: Cc1c(-c2c(-c3ccc(F)o3)sc3ncnc(OC(Cc4ccccc4OCc4ccncn4)C(=O)O)c23)ccc(OCCN2CCN(C)CC2)c1Cl (stereo not drawn)
READING UNIT: µM
IC50: 0.03
--
COMPOUND: COc1ccccc1CC(Oc1ncnc2sc(-c3ccc(C)o3)c(-c3ccc(OCCN4CCN(C)CC4)c(Cl)c3C)c12)C(=O)O (stereo not drawn)
READING UNIT: µM
IC50: 0.329
--
COMPOUND: Cc1c(-c2c(-c3ccc(F)cc3)sc3ncnc(OC(Cc4ccccc4OCc4ccnc(-c5ccncc5)n4)C(=O)O)c23)ccc(OCCN(C)C)c1Cl (stereo not drawn)
READING UNIT: µM
IC50: 0.018
--
COMPOUND: CCC#Cc1sc2ncnc(OC(Cc3ccccc3OCc3ccnn3CCCC)C(=O)O)c2c1-c1ccc(OCCN2CCN(C)CC2)c(Cl)c1C (stereo not drawn)
READING UNIT: µM
IC50: 0.02
--
COMPOUND: Cc1c(-c2c(-c3ccco3)sc3ncnc(OC(Cc4ccccc4OCc4cccc(Cl)n4)C(=O)O)c23)ccc(OCCN2CCN(C)CC2)c1Cl (stereo not drawn)
READING UNIT: µM
IC50: 0.137
--
COMPOUND: Cc1c(-c2c(-c3ccc(F)cc3)sc3ncnc(OC(Cc4ccccc4OCc4ccnn4-c4ccccc4)C(=O)O)c23)ccc(OCCN2CCN(C)CC2)c1Cl (stereo not drawn)
READING UNIT: µM
IC50: 0.365
--
COMPOUND: CCCn1nccc1COc1ccccc1CC(Oc1ncnc2sc(-c3ccc(F)o3)c(-c3ccc(OCCN4CCN(C)CC4)c(Cl)c3C)c12)C(=O)O (stereo not drawn)
READING UNIT: µM
IC50: 0.02
--
COMPOUND: Cc1c(-c2c(-c3ccc(F)cc3)sc3ncnc(OC(Cc4ccccc4OCC4CCCO4)C(=O)O)c23)ccc(OCC2CCN(C)C2)c1Cl (stereo not drawn)
READING UNIT: µM
IC50: 0.341
--
COMPOUND: COc1ccccc1CC(Oc1ncnc2sc(-c3ccccc3)c(-c3ccc(OCCN4CCN(C)CC4)c(Cl)c3C)c12)C(=O)O (stereo not drawn)
READING UNIT: µM
IC50: 0.202
--
COMPOUND: COc1ccc(F)cc1CC(Oc1ncnc2sc(-c3ccco3)c(-c3ccc(OCCN4CCN(C)CC4)c(Cl)c3C)c12)C(=O)O (stereo not drawn)
READING UNIT: µM
IC50: 0.322
--
COMPOUND: Cc1c(-c2c(-c3ccco3)sc3ncnc(OC(Cc4ccccc4OCc4ccccn4)C(=O)O)c23)ccc(OCCN2CCN(C)CC2)c1Cl (stereo not drawn)
READING UNIT: µM
IC50: 0.074
--
COMPOUND: COCCCn1nccc1COc1ccccc1CC(Oc1ncnc2sc(-c3ccc(F)cc3)c(-c3ccc(OCCN4CCN(C)CC4)c(Cl)c3C)c12)C(=O)O (stereo not drawn)
READING UNIT: µM
IC50: 0.063
--
COMPOUND: Cc1c(-c2c(-c3ccc(F)cc3)sc3ncnc(OC(Cc4ccccc4OCc4ccnc(-c5ccccc5OCc5ccccc5)n4)C(=O)O)c23)ccc(OCCN2CCN(C)CC2)c1Cl (stereo not drawn)
READING UNIT: µM
IC50: 0.01
--
COMPOUND: Cc1c(-c2c(-c3ccco3)sc3ncnc(OC(Cc4ccccc4OCc4cscn4)C(=O)O)c23)ccc(OCCN2CCN(C)CC2)c1Cl (stereo not drawn)
READING UNIT: µM
IC50: 0.081
--
COMPOUND: Cc1c(-c2c(-c3ccc(F)o3)sc3ncnc(OC(Cc4ccccc4OCc4ccnc(OCC(F)(F)F)n4)C(=O)O)c23)ccc(OCCN(C)C)c1Cl (stereo not drawn)
READING UNIT: µM
IC50: 0.005
--
COMPOUND: Cc1c(-c2c(-c3ccc(F)cc3)sc3ncnc(OC(Cc4ccccc4OCc4ccnc(-c5ccccc5F)n4)C(=O)O)c23)ccc(OCCN(C)C)c1Cl (stereo not drawn)
READING UNIT: µM
IC50: 0.013
--
COMPOUND: COc1cc(COc2ccccc2CC(Oc2ncnc3sc(-c4ccc(F)o4)c(-c4ccc(OCCN5CCN(C)CC5)c(Cl)c4C)c23)C(=O)O)ncn1 (stereo not drawn)
READING UNIT: µM
IC50: 0.027
--
COMPOUND: Cc1cnccc1-c1nccc(COc2ccccc2CC(Oc2ncnc3sc(-c4ccc(F)o4)c(-c4ccc(OCCN5CCN(C)CC5)c(Cl)c4C)c23)C(=O)O)n1 (stereo not drawn)
READING UNIT: µM
IC50: 0.002
--
COMPOUND: COc1cccc(-c2nccc(COc3ccccc3CC(Oc3ncnc4sc(-c5ccc(F)cc5)c(-c5ccc(OCCN6CCN(C)CC6)c(Cl)c5C)c34)C(=O)O)n2)c1 (stereo not drawn)
READING UNIT: µM
IC50: 0.011
--
COMPOUND: Cc1c(-c2c(-c3ccc(F)cc3)sc3ncnc(OC(Cc4ccccc4OCc4ccnn4C4CCOCC4)C(=O)O)c23)ccc(OCCN2CCN(C)CC2)c1Cl (stereo not drawn)
READING UNIT: µM
IC50: 0.11
--
COMPOUND: COc1ccccc1-c1nccc(COc2ccccc2CC(Oc2ncnc3sc(-c4ccc(F)cc4)c(-c4ccc(OCCN5CCN(C)CC5)c(Cl)c4Br)c23)C(=O)O)n1 (stereo not drawn)
READING UNIT: µM
IC50: 0.002
--
COMPOUND: CCc1sc2ncnc(OC(Cc3ccccc3)C(=O)O)c2c1-c1ccc(OCCCN2CCN(C)CC2)c(Cl)c1C (stereo not drawn)
READING UNIT: µM
IC50: 10.4
--
COMPOUND: Cc1c(-c2c(-c3ccco3)sc3ncnc(OC(Cc4ccccc4OCc4cnc(N5CCCC5)nc4)C(=O)O)c23)ccc(OCCN2CCN(C)CC2)c1Cl (stereo not drawn)
READING UNIT: µM
IC50: 0.822
--
COMPOUND: Cc1c(-c2c(-c3ccco3)sc3ncnc(OC(Cc4ccccc4O)C(=O)O)c23)ccc(OCCN2CCN(C)CC2)c1Cl (stereo not drawn)
READING UNIT: µM
IC50: 0.186

The origin of these recorded values is patent US9670227B2.
